- method.notes: Kinetic solubility in HEPES buffer containing 5% DMSO at pH 8 incubated for 20 hrs by NMR analysis
- Type: physicochemical
- experimental.conditions: read-out: Kinetic_solubility
Everything with solubility kinetic at 20 h lower than 300 µM is False; everything else, including exactly 300 µM, is True.

# compound, class
records = [
    ("Cc1nc(C)c(-c2ncc(Cl)c(Nc3ccc4c(c3)n(CCC(C)(C)O)c(=O)n4C)n2)s1", "False"),
    ("Cn1c(=O)n(CCC(C)(C)O)c2cc(Nc3ccnc(Cl)c3Cl)ccc21", "False"),
    ("N#Cc1c(NCc2ccccc2)ccnc1Cl", "False"),
    ("C[C@@H]1CN(c2ncc(Cl)c(Nc3ccc4c(c3)n(CCC(C)(C)O)c(=O)n4C)n2)C[C@H](C)O1", "False"),
    ("CN(C)c1ncc(Cl)c(Nc2ccc3c(c2)n(CCC(C)(C)O)c(=O)n3C)n1", "False"),
    ("Cn1c(=O)n(C)c2cc(Nc3ccnc(Cl)c3C#N)ccc21", "False"),
    ("Cn1c(=O)n(CCC(C)(C)O)c2cc(Nc3ccnc(Cl)c3C#N)ccc21", "False"),
    ("Cn1c(=O)n(CCC(C)(C)O)c2cc(Nc3nc(Cl)ncc3Cl)ccc21", "True"),
    ("CC[C@H](O)Cn1c(=O)n(C)c2ccc(Nc3ccnc(Cl)c3C#N)cc21", "True"),
    ("Cn1c(=O)n(CCC(C)(C)O)c2cc(Nc3nc(N4CCC(C(F)(F)F)CC4)ncc3Cl)ccc21", "False"),
    ("Cc1cc(C)n(-c2cc(Nc3ccc4c(c3)n(CCC(C)(C)O)c(=O)n4C)c(Cl)cn2)n1", "False"),
    ("Cn1c(=O)n(CCC(C)(C)O)c2cc(Nc3nc(N4CCCC(C(F)(F)F)C4)ncc3Cl)ccc21 (configuration not stated)", "False"),
    ("C[C@@H]1CN(c2ncc(Cl)c(Nc3ccc4c(c3)n(CCC(C)(C)O)c(=O)n4C)n2)C[C@H](C)C1(F)F", "False"),
    ("Cn1c(=O)n(CCC(C)(C)O)c2cc(Nc3nc(N4CCCC(C#N)C4)ncc3Cl)ccc21 (configuration not stated)", "True"),
    ("C[C@@H]1CN(c2cc(Nc3ccc4c(c3)n(CCC(C)(C)O)c(=O)n4C)c(Cl)cn2)C[C@H](C)O1", "False"),
    ("COCC1CN(c2ncc(Cl)c(Nc3ccc4c(c3)n(CCC(C)(C)O)c(=O)n4C)n2)CCC1(F)F (configuration not stated)", "False"),
    ("Cn1c(=O)n(CCC(C)(C)O)c2cc(Nc3nc(N4CCC(F)(F)CC4)ncc3Cl)ccc21", "False"),
    ("CSc1ncc(Cl)c(Nc2ccc3c(c2)n(CCC(C)(C)O)c(=O)n3C)n1", "True"),
    ("CC1CN(c2ncc(Cl)c(Nc3ccc4c(c3)n(CCC(C)(C)O)c(=O)n4C)n2)CCC1(F)F (configuration not stated)", "False"),
    ("C[C@H](O)CCn1c(=O)n(C)c2ccc(Nc3ccnc(Cl)c3C#N)cc21", "False"),
    ("Cn1ccnc1-c1ncc(Cl)c(Nc2ccc3c(c2)n(CCC(C)(C)O)c(=O)n3C)n1", "False"),
    ("Cn1c(=O)n(CCC(C)(C)O)c2cc(Nc3nc(N4CCOCC4)ncc3Cl)ccc21", "True"),
    ("Cn1c(=O)n(CCC(C)(C)O)c2cc(Nc3nc(N4CCCC(CO)C4)ncc3Cl)ccc21 (configuration not stated)", "True"),
    ("Cn1c(=O)n(CCC(C)(C)O)c2cc(Nc3nc(N4CC5CCC(C4)C5(F)F)ncc3Cl)ccc21", "False"),
    ("Cn1c(=O)n(CCC(C)(C)O)c2cc(Nc3c(Cl)cncc3Cl)ccc21", "False"),
    ("CC1CCCN(c2ncc(Cl)c(Nc3ccc4c(c3)n(CCC(C)(C)O)c(=O)n4C)n2)C1 (configuration not stated)", "False"),
]

---

Each entry below carries its measured DC50, system: B-cell lymphoma 6 protein (Homo sapiens, UniProt P41182).
readout.kind: DC50

# compound, target.or.test.system, experimental.value
rows = [
    ("C[C@@H]1CN(c2ncc(Cl)c(Nc3ccc4c(c3)n(CCC(C)(C)O)c(=O)n4C)n2)C[C@H](C)O1", "B-cell lymphoma 6 protein (Homo sapiens, UniProt P41182)", "> 10000 nM"),
    ("C[C@@H]1C[C@H](C)CN(c2cc(Nc3ccc4c(c3)n(CCC(C)(C)O)c(=O)n4C)c(Cl)cn2)C1", "B-cell lymphoma 6 protein (Homo sapiens, UniProt P41182)", "1800 nM"),
    ("COCC1CN(c2ncc(Cl)c(Nc3ccc4c(c3)n(CCC(C)(C)O)c(=O)n4C)n2)CCC1(F)F (stereo not drawn)", "B-cell lymphoma 6 protein (Homo sapiens, UniProt P41182)", "440 nM"),
    ("Cn1c(=O)n(CCC(C)(C)O)c2cc(Nc3nc(-n4cccn4)ncc3Cl)ccc21", "B-cell lymphoma 6 protein (Homo sapiens, UniProt P41182)", "> 10000 nM"),
    ("Cc1cc(C)n(-c2cc(Nc3ccc4c(c3)n(CCC(C)(C)O)c(=O)n4C)c(Cl)cn2)n1", "B-cell lymphoma 6 protein (Homo sapiens, UniProt P41182)", "> 10000 nM"),
    ("Cn1c(=O)n(CCC(C)(C)O)c2cc(Nc3nc(N4CCCC(C(F)(F)F)C4)ncc3Cl)ccc21 (stereo not drawn)", "B-cell lymphoma 6 protein (Homo sapiens, UniProt P41182)", "750 nM"),
    ("Cc1ccn(-c2ncc(Cl)c(Nc3ccc4c(c3)n(CCC(C)(C)O)c(=O)n4C)n2)n1", "B-cell lymphoma 6 protein (Homo sapiens, UniProt P41182)", "> 10000 nM"),
    ("Cc1cc(C)n(-c2ncc(Cl)c(Nc3ccc4c(c3)n(CCC(C)(C)O)c(=O)n4C)n2)n1", "B-cell lymphoma 6 protein (Homo sapiens, UniProt P41182)", "> 10000 nM"),
]

---

- method.notes: Metabolic stability in CD-1 mouse liver microsomes assessed as intrinsic clearance at 1 uM measured upt0 30 mins by LC-MS/MS analysis
- Assay type: ADME, Microsome
- experimental.conditions: 0.5 h
# key: entry, value: CLH

# compound, CLH, µL/min/mg
data = [
    ("Cn1c(=O)n(CCC(C)(C)O)c2cc(Nc3nc(N4CCCC(C(F)(F)F)C4)ncc3Cl)ccc21 (stereo unspecified)", 630),
    ("CC1CCCN(c2ncc(Cl)c(Nc3ccc4c(c3)n(CCC(C)(C)O)c(=O)n4C)n2)C1 (stereo unspecified)", 2210),
    ("C[C@@H]1CN(c2ncc(Cl)c(Nc3ccc4c(c3)n(CCC(C)(C)O)c(=O)n4C)n2)C[C@H](C)O1", 104),
    ("Cn1c(=O)n(CCC(C)(C)O)c2cc(Nc3nc(N4CCC(F)(F)CC4)ncc3Cl)ccc21", 36),
    ("CC1CN(c2ncc(Cl)c(Nc3ccc4c(c3)n(CCC(C)(C)O)c(=O)n4C)n2)CCC1(F)F (stereo unspecified)", 66),
    ("C[C@@H]1C[C@H](C)CN(c2ncc(Cl)c(Nc3ccc4c(c3)n(CCC(C)(C)O)c(=O)n4C)n2)C1", 2440),
]

---

- method.notes: Kinetic solubility in HEPES buffer containing 5% DMSO at pH 8 incubated for 20 hrs by NMR analysis
- Type: physicochemical
- experimental.conditions: read-out: Kinetic_solubility
readout.kind: solubility kinetic at 20 h (µM)

# molecule, unit.symbol, experimental.value
rows = [
    ("Cn1c(=O)n(C)c2cc(Nc3ncccc3C#N)ccc21", "µM", 300),
    ("Cn1c(=O)n(CCC(C)(C)O)c2cc(Nc3nc(N4CCC(F)(F)C(CO)C4)ncc3Cl)ccc21 (stereo unspecified)", "µM", 294),
    ("C[C@@H](O)CCn1c(=O)n(C)c2ccc(Nc3ccnc(Cl)c3C#N)cc21", "µM", 308),
    ("CC[C@@H](O)Cn1c(=O)n(C)c2ccc(Nc3ccnc(Cl)c3C#N)cc21", "µM", 307),
    ("CCC(O)Cn1c(=O)n(C)c2ccc(Nc3ccnc(Cl)c3C#N)cc21 (racemic)", "µM", 298),
    ("N#Cc1c(NCC2CC2)ccnc1Cl", "µM", 300),
]
